Taken from ChEMBL document CHEMBL4689842.

Test system: Fibroblast
assay-explanation: Multiplex assay against human fibroblast
Assay type: toxicity, cell-based
condition-set: 24 h, 10 µM, compound concentration 10 uM, replicate 2
value-kind: Population Mitochondria Different-Phenotype (%)

>  <compound>
Cc1cc(C)c(S(=O)(=O)N(Cc2ccc(-c3cccc(S(C)(=O)=O)c3)cc2)Cc2ccc(C(F)(F)F)o2)c(C)c1

>  <system>
Fibroblast

>  <numeric-value>
10

$$$$
>  <compound>
CCCn1c(=O)c2[nH]c(-c3cnn(Cc4cccc(C(F)(F)F)c4)c3)nc2n(CC)c1=O [GS 6201]

>  <system>
Fibroblast

>  <numeric-value>
11

$$$$
>  <compound>
COC(=N)c1nc2ccc3ncnc(Nc4ccc(OC)cc4F)c3c2s1

>  <system>
Fibroblast

>  <numeric-value>
5

$$$$
>  <compound>
Cc1cn(-c2cc(NC(=O)c3ccc(C)c(Nc4nccc(-c5cccnc5)n4)c3)cc(C(F)(F)F)c2)cn1 [NILOTINIB]

>  <system>
Fibroblast

>  <numeric-value>
42

$$$$
>  <compound>
NC(=O)c1cccc(-c2cc(Nc3ccc(OC(F)(F)F)cc3)ncn2)c1

>  <system>
Fibroblast

>  <numeric-value>
31

$$$$
>  <compound>
CCOc1cc2ncc(C#N)c(Nc3ccc(OCc4ccccn4)c(Cl)c3)c2cc1NC(=O)/C=C/CN(C)C [NERATINIB]

>  <system>
Fibroblast

>  <numeric-value>
14

$$$$
>  <compound>
CCn1cc(-c2ccnc3[nH]c(-c4cccc(CN(C)C)c4)cc23)c(-c2ccc(NC(=O)N(C)C)cc2)n1 [GSK-1070916]

>  <system>
Fibroblast

>  <numeric-value>
20

$$$$
>  <compound>
Cc1ccc2nc(NCCN)c3ncc(C)n3c2c1.O=C(O)C(F)(F)F.O=C(O)C(F)(F)F

>  <system>
Fibroblast

>  <numeric-value>
15

$$$$
>  <compound>
C=C1/C(=C\C=C2/CCC[C@]3(C)[C@@H]([C@H](C)/C=C/[C@H](C)C(C)C)CC[C@@H]23)C[C@@H](O)C[C@@H]1O [DOXERCALCIFEROL]

>  <system>
Fibroblast

>  <numeric-value>
16

$$$$
>  <compound>
Cl.Oc1ccc2c3c1O[C@H]1c4[nH]c5c(c4C[C@@]4(O)[C@@H](C2)N(CC2CC2)CC[C@]314)C[C@@]1(O)[C@H]2Cc3ccc(O)c4c3[C@@]1(CCN2CC1CC1)[C@H]5O4

>  <system>
Fibroblast

>  <numeric-value>
33

$$$$
>  <compound>
CN1C2CCC1CC(OC(c1ccc(F)cc1)c1ccc(F)cc1)C2.Cl (stereo unspecified)

>  <system>
Fibroblast

>  <numeric-value>
78

$$$$
>  <compound>
COc1cccc2cc(-c3nc([C@H]4CC[C@H](C(=O)O)CC4)n4ncnc(N)c34)[nH]c12 [OSI-027]

>  <system>
Fibroblast

>  <numeric-value>
11

$$$$
>  <compound>
C=CCn1c(=O)c2cnc(Nc3ccc(N4CCN(C)CC4)cc3)nc2n1-c1cccc(C(C)(C)O)n1 [ADAVOSERTIB]

>  <system>
Fibroblast

>  <numeric-value>
9

$$$$
>  <compound>
O=C(Nc1ccc(-c2ccnc(Nc3ccc(N4CCOCC4)cc3)n2)cc1)[C@@H]1CCCN1

>  <system>
Fibroblast

>  <numeric-value>
17

$$$$
>  <compound>
Cn1nc(C(F)(F)F)cc1-c1cnc(N2CCc3cc(S(=O)(=O)Nc4c(F)cc(Cl)cc4F)cc(N4CCCC4=O)c32)nc1 [TP-020]

>  <system>
Fibroblast

>  <numeric-value>
0

$$$$
>  <compound>
O=C(Nc1cccnn1)N1CCC(=Cc2cccc(Oc3ccc(C(F)(F)F)cn3)c2)CC1

>  <system>
Fibroblast

>  <numeric-value>
8

$$$$
>  <compound>
CCCS(=O)(=O)Nc1ccc(F)c(C(=O)c2c[nH]c3ncc(Cl)cc23)c1F [PLX-4720]

>  <system>
Fibroblast

>  <numeric-value>
10

$$$$
>  <compound>
CCc1cccc(CC)c1NC(=O)c1nn(C)c2c1CCc1cnc(Nc3ccc(N4CCN(C)CC4)cc3OC)nc1-2

>  <system>
Fibroblast

>  <numeric-value>
10

$$$$
>  <compound>
CCn1c(=O)c(-c2ccc(-c3cncs3)cc2Cl)cc2cnc(Nc3ccc(N4CCN(C)CC4)cc3)nc21

>  <system>
Fibroblast

>  <numeric-value>
23

$$$$
>  <compound>
CN1CCN(C(=O)C(C)(C)c2ccc(C(=O)Nc3cn4cc(-c5cc(C(C)(C)C)cc(C(C)(C)C)c5)ccc4n3)cc2)CC1 [T3-CLK-N]

>  <system>
Fibroblast

>  <numeric-value>
15

$$$$
>  <compound>
O=C(Nc1ccc(-n2nc(-c3cccnc3)cc2C(F)(F)F)cn1)c1ccc(-c2ccccc2)c(F)c1 [BI 2049]

>  <system>
Fibroblast

>  <numeric-value>
13

$$$$
>  <compound>
CCc1cccc(CC)c1NC(=O)c1nn(C)c2c1CCc1cnc(Nc3ccc(C(=O)NC4CCN(C)CC4)cc3OC(F)(F)F)nc1-2

>  <system>
Fibroblast

>  <numeric-value>
91

$$$$
>  <compound>
CN1CCC(=C2c3ccccc3CC(=O)c3sccc32)CC1.O=C(O)/C=C/C(=O)O [KETOTIFEN FUMARATE]

>  <system>
Fibroblast

>  <numeric-value>
98

$$$$
>  <compound>
CN(C)C(=O)C(CCN1CCC(O)(c2ccc(Cl)cc2)CC1)(c1ccccc1)c1ccccc1.Cl [LOPERAMIDE HYDROCHLORIDE]

>  <system>
Fibroblast

>  <numeric-value>
95

$$$$
>  <compound>
Cc1ccc(C(=O)Nc2cccc(C(F)(F)F)c2)cc1Nc1nc(-c2cccnc2)nc2c1cnn2C

>  <system>
Fibroblast

>  <numeric-value>
75

$$$$
>  <compound>
CCN1CCN(Cc2ccc(Nc3ncc(F)c(-c4cc(F)c5nc(C)n(C(C)C)c5c4)n3)nc2)CC1.CS(=O)(=O)O

>  <system>
Fibroblast

>  <numeric-value>
87

$$$$
>  <compound>
O=C1NC(=O)C(c2cnc3ccccn23)=C1c1cn2c3c(cc(F)cc13)CN(C(=O)N1CCCCC1)CC2 [LY-2090314]

>  <system>
Fibroblast

>  <numeric-value>
96

$$$$
>  <compound>
O=C(Nc1ccc(Cl)cc1)Nc1cccc(-c2cccc(N3CCCC3)n2)c1

>  <system>
Fibroblast

>  <numeric-value>
15

$$$$
>  <compound>
O=C(Cc1ccc(-c2ccc(OCCN3CCOCC3)cc2)cn1)NCc1ccccc1 [TIRBANIBULIN]

>  <system>
Fibroblast

>  <numeric-value>
40

$$$$
>  <compound>
Cl.O=c1c2cccn2c2ccccc2n1CCCN1CCC(c2ccc(Cl)cc2)CC1

>  <system>
Fibroblast

>  <numeric-value>
98

$$$$
>  <compound>
CCN1CCN(c2ccc(Nc3cc(N(C)C(=O)Nc4c(Cl)c(OC)cc(OC)c4Cl)ncn3)cc2)CC1 [INFIGRATINIB]

>  <system>
Fibroblast

>  <numeric-value>
9

$$$$

###

System: HEK-293T
assay-explanation: Multiplex assay against HEK293T
Format: toxicity, cell-based
condition-set: human, 24 h, 10 µM, compound concentration 10 uM, replicate 1
In plain terms, low Population Pyknosed Nuclei (%), meaning strictly below 20%, gives class 1, and everything else gives class 0.

>  <compound>
CCCn1c(=O)c2[nH]c(-c3cnn(Cc4cccc(C(F)(F)F)c4)c3)nc2n(CC)c1=O

>  <label>
class 0

$$$$
>  <compound>
CNc1cc(Oc2cc(C(=O)Nc3cc(N4CCN(C)CC4)cc(C(F)(F)F)c3)ccc2C)ncn1

>  <label>
class 0

$$$$
>  <compound>
CN1CCC(=C2c3ccccc3CC(=O)c3sccc32)CC1.O=C(O)/C=C/C(=O)O [KETOTIFEN FUMARATE]

>  <label>
class 0

$$$$
>  <compound>
CCCS(=O)(=O)Nc1ccc(F)c(C(=O)c2c[nH]c3ncc(Cl)cc23)c1F

>  <label>
class 1

$$$$
>  <compound>
CCN1CCN(c2ccc(Nc3cc(N(C)C(=O)Nc4c(Cl)c(OC)cc(OC)c4Cl)ncn3)cc2)CC1

>  <label>
class 1

$$$$
>  <compound>
CCOc1cc2ncc(C#N)c(Nc3ccc(OCc4ccccn4)c(Cl)c3)c2cc1NC(=O)/C=C/CN(C)C

>  <label>
class 0

$$$$
>  <compound>
COc1cc(N2CCN(C)CC2)ccc1Nc1ncc2c(n1)N(C)c1ccccc1C(=O)N2C

>  <label>
class 0

$$$$
>  <compound>
C=CCn1c(=O)c2cnc(Nc3ccc(N4CCN(C)CC4)cc3)nc2n1-c1cccc(C(C)(C)O)n1

>  <label>
class 0

$$$$
>  <compound>
O=C(Nc1ccc(Cl)cc1)Nc1cccc(-c2cccc(N3CCCC3)n2)c1

>  <label>
class 0

$$$$
>  <compound>
O=C(Nc1ccc(-c2ccnc(Nc3ccc(N4CCOCC4)cc3)n2)cc1)[C@@H]1CCCN1

>  <label>
class 0

$$$$
>  <compound>
S=C(NCCCc1c[nH]cn1)NCCCN(Cc1ccc(Cl)c(Cl)c1)c1ccc(Br)cn1

>  <label>
class 0

$$$$
>  <compound>
O=C1N/C(=N/c2ccccc2F)S/C1=C\c1ccc(C(=O)O)cc1

>  <label>
class 0

$$$$
>  <compound>
Cc1cn(-c2cc(NC(=O)c3ccc(C)c(Nc4nccc(-c5cccnc5)n4)c3)cc(C(F)(F)F)c2)cn1

>  <label>
class 0

$$$$
>  <compound>
COc1cc2ncnc(Nc3ccc(F)c(Cl)c3)c2cc1NC(=O)/C=C/CN1CCCCC1 [DACOMITINIB ANHYDROUS]

>  <label>
class 1

$$$$
>  <compound>
CCn1c(=O)c(-c2ccc(-c3cncs3)cc2Cl)cc2cnc(Nc3ccc(N4CCN(C)CC4)cc3)nc21

>  <label>
class 0

$$$$
>  <compound>
CCN1CCN(Cc2ccc(Nc3ncc(F)c(-c4cc(F)c5nc(C)n(C(C)C)c5c4)n3)nc2)CC1.CS(=O)(=O)O

>  <label>
class 0

$$$$
